# assay.text: amyloid nucleation score (Sup35N fusion, yeast selection) (log enrichment); library NNK3; higher = more nucleation; inactive = no reads after selection;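 further: zero at mode of non-aggregating sequences after 7 days selection at 30°C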
outcome.measure: amyloid nucleation score

substance: WACIQK
amyloid nucleation score: inactive

substance: RPVSGTNFINAN
amyloid nucleation score: inactive

substance: ENIVCLAGKQHNHEMG
amyloid nucleation score: inactive

substance: KARANFVYAKFHFTRAP
amyloid nucleation score: inactive

substance: PASLTRDVTMCFQNRWDPLR
amyloid nucleation score: inactive

substance: EMNLLFIVDAIELCPVLQAR
amyloid nucleation score: inactive

substance: VVRYHSMYKDCYFLKRFVIL
amyloid nucleation score: inactive

substance: SYYAHL
amyloid nucleation score: inactive

Query block: Recorded amyloid nucleation score for `LLIKAAFGKMVRCKFRLIEW` , please?
Result block: -0.454

----------
# assay.text: amyloid nucleation score (Sup35N fusion, yeast selection) (log enrichment); library NNK2; higher = more nucleation; inactive = no reads after selection
outcome.measure: amyloid nucleation score
Lab note: write the figure by itself, no unit.

Worked cases, amyloid nucleation score given:
substance: SKPWKYNRFYLESSEWSSFC
obs.value: 1.47
//
substance: LHTTCLFSRWNVFL
obs.value: 2.3

Query block: Recorded amyloid nucleation score for `PLHHSLRTYVALGLR` , please?
Result block: 0.306

Query block: Recorded amyloid nucleation score for `NVVSEEIMVCIVVSDLKRFR` , please?
Result block: 0.619

Query block: Recorded amyloid nucleation score for `DKVDLSA` , please?
Result block: 0.053

Query block: Recorded amyloid nucleation score for `EACVISNGISILL` , please?
Result block: -0.54

Query block: Recorded amyloid nucleation score for `LLAFFMWSLRQRDSGTLLLD` , please?
Result block: -0.63

Query block: Recorded amyloid nucleation score for `MSGEDSGCLWDCNVYSRLDV` , please?
Result block: -0.486

Query block: Recorded amyloid nucleation score for `MTTFDIRIMA` , please?
Result block: 0.195

Query block: Recorded amyloid nucleation score for `LQCAFFDSSNMWI` , please?
Result block: -0.604

Query block: Recorded amyloid nucleation score for `LSHRSQYGADVIRSR` , please?
Result block: -0.316

----------
# assay.text: amyloid nucleation score (Sup35N fusion, yeast selection) (log enrichment); library NNK1; higher = more nucleation; inactive = no reads after selection
Property: amyloid nucleation score; scope: individual substances
Lab note: write the figure by itself, no unit.

Worked cases, amyloid nucleation score given:
substance: YDEGHS
outcome.measure: amyloid nucleation score
obs.value: -0.778
--
substance: FWTRCVFLLRGNSMWESCRG
outcome.measure: amyloid nucleation score
obs.value: -0.385
--
substance: GTVYWIYGGINLSAVLSSRS
outcome.measure: amyloid nucleation score
obs.value: 3.44

Next item in the queue.
Query block: Recorded amyloid nucleation score for `HTWNPDYVAECFKEFKRLYK` , please?
Result block: 0.393

----------
# assay.text: amyloid nucleation score (Sup35N fusion, yeast selection) (log enrichment); library NNK3; higher = more nucleation; inactive = no reads after selection
outcome.measure: amyloid nucleation score

Worked cases, amyloid nucleation score given:
substance: ILNTVIGSQLDELPVAAFSS
outcome.measure: amyloid nucleation score
obs.value: inactive
//
substance: QERTKSFWPLLLALALPSDQ
outcome.measure: amyloid nucleation score
obs.value: inactive
//
substance: VMCLVSRPPQWSVLDVSTIM
outcome.measure: amyloid nucleation score
obs.value: inactive
//
substance: RFTCKYLPTLLTGVIRGPSP
outcome.measure: amyloid nucleation score
obs.value: inactive
//
substance: KVCSVVLLGLFSYMYRGYVM
outcome.measure: amyloid nucleation score
obs.value: inactive
//
substance: ISTVNNIRIRFASKLGFFE
outcome.measure: amyloid nucleation score
obs.value: 1.25

Query block: Recorded amyloid nucleation score for `FWTCTSSPVLMRWRRSGFNV` , please?
Result block: inactive

Query block: Recorded amyloid nucleation score for `NTWILNC` , please?
Result block: inactive

Query block: Recorded amyloid nucleation score for `YLYVRYTFRYWVVNYRYNNG` , please?
Result block: inactive

Query block: Recorded amyloid nucleation score for `CKNLWRVLGISPTRSSSMRV` , please?
Result block: inactive

Query block: Recorded amyloid nucleation score for `GKLFWFCFRWRYLLTKMVQN` , please?
Result block: -0.702

----------
# assay.text: amyloid nucleation score (Sup35N fusion, yeast selection) (log enrichment); library NNK3; higher = more nucleation; inactive = no reads after selection
outcome.measure: amyloid nucleation score

Worked cases, amyloid nucleation score given:
substance: TWSSLFMIFQYTCAGCWDFK
amyloid nucleation score: 1.52

substance: YRDRYLDPLWAD
amyloid nucleation score: inactive

substance: PFCVMDLSIKWGNMYYFLQT
amyloid nucleation score: inactive

substance: FKLHCSDRYECTKDLSHLWC
amyloid nucleation score: inactive

substance: TWCFDSACNANGTWR
amyloid nucleation score: inactive

substance: WGFRRT
amyloid nucleation score: inactive

substance: WFDFHA
amyloid nucleation score: 0.9

substance: CCLEILGTLFN
amyloid nucleation score: inactive

Query block: Recorded amyloid nucleation score for `FYFDARRSITLSNSNVVKLW` , please?
Result block: 1.93

Query block: Recorded amyloid nucleation score for `FSCSNSLTMVFVEDFNHATY` , please?
Result block: inactive

Query block: Recorded amyloid nucleation score for `AKICLFV` , please?
Result block: inactive

Query block: Recorded amyloid nucleation score for `LKHCQMGVVTSSYLMWLVGT` , please?
Result block: inactive

Query block: Recorded amyloid nucleation score for `NLLPRCKLIDSWWSSHRLWV` , please?
Result block: -0.809

Query block: Recorded amyloid nucleation score for `AGKDSPGTDHGGGKNNVRV` , please?
Result block: inactive

Query block: Recorded amyloid nucleation score for `SNKSHVCYFSIEFVLISGLS` , please?
Result block: inactive

Query block: Recorded amyloid nucleation score for `LRMVTHMSVYDRNHLSW` , please?
Result block: inactive

----------
# assay.text: amyloid nucleation score (Sup35N fusion, yeast selection) (log enrichment); library NNK2; higher = more nucleation; inactive = no reads after selection
outcome.measure: amyloid nucleation score
Lab note: write the figure by itself, no unit.

Worked cases, amyloid nucleation score given:
query.sequence: WRCGVVFRDEYCYRGNRTFK
obs.value: -0.675
--
query.sequence: GKDGRVFGSEAYWMEGKRKW
obs.value: 0.235
--
query.sequence: MVILVLFASTVLQYTVPFWV
obs.value: 0.247
--
query.sequence: VFLYYRTILMWVVSGLL
obs.value: -0.449
--
query.sequence: YYKFTVCWMYYLYQKSRTLL
obs.value: -1.15

Query block: Recorded amyloid nucleation score for `NELVSLQVIWIF` , please?
Result block: -0.098

Query block: Recorded amyloid nucleation score for `SPYHKANGHKNVARLYFRWR` , please?
Result block: 0.731

Query block: Recorded amyloid nucleation score for `ISPIVEIGRASTVTLSDISV` , please?
Result block: 4.71

Query block: Recorded amyloid nucleation score for `MNVMNQSSFHMV` , please?
Result block: -0.108

Query block: Recorded amyloid nucleation score for `RYFLYFCYVGPNSAMFLSR` , please?
Result block: -0.27

Query block: Recorded amyloid nucleation score for `SYFLYLGLNPVYQWYDSFVV` , please?
Result block: 1.47

----------
# assay.text: amyloid nucleation score (Sup35N fusion, yeast selection) (log enrichment); library NNK2; higher = more nucleation; inactive = no reads after selection
outcome.measure: amyloid nucleation score
Lab note: write the figure by itself, no unit.

Worked cases, amyloid nucleation score given:
substance: TPAWCYPTGIGLIPPEWLGQ
amyloid nucleation score: 0.605
//
substance: SVLKYS
amyloid nucleation score: -0.334
//
substance: SLTVFHLKYMSQNIKAE
amyloid nucleation score: -0.797
//
substance: DSWFRPVLNFPCSRNANKSL
amyloid nucleation score: 1.95

Query block: Recorded amyloid nucleation score for `CYRVVTLFNFK` , please?
Result block: 6.18

Query block: Recorded amyloid nucleation score for `RYVYRTVGWHQFLCGTVLFW` , please?
Result block: 0.588

Query block: Recorded amyloid nucleation score for `RSDMCSAMIFWSELVKWQDG` , please?
Result block: 3.84

----------
# assay.text: amyloid nucleation score (Sup35N fusion, yeast selection) (log enrichment); library NNK3; higher = more nucleation; inactive = no reads after selection
outcome.measure: amyloid nucleation score

Worked cases, amyloid nucleation score given:
query.sequence: RMCKTATVIHYGLFINLTEF
amyloid nucleation score: inactive

query.sequence: GVLSYNMIHT
amyloid nucleation score: inactive

query.sequence: WVHSVKENVSCGSRF
amyloid nucleation score: inactive

query.sequence: RMEKIRTKVNSVTDSSWKSR
amyloid nucleation score: inactive

query.sequence: SWFWVHHEFVFKALGTLIRT
amyloid nucleation score: inactive

query.sequence: YLMYSVESVRWTLIE
amyloid nucleation score: inactive

query.sequence: FFKFFWFSRRPISSFLGLCV
amyloid nucleation score: 0.708

query.sequence: KSNFGLVSSPMVFSYCSYTN
amyloid nucleation score: 0.364

Query block: Recorded amyloid nucleation score for `MFQGHMSWII` , please?
Result block: inactive
